Kindly supply the reported increase in late apoptotic cells vs control values for the records listed here.
System: HepG2 cells
Assay: Flow cytometric detection of cell death (Annexin V & Dead Cell Assay)
Format: cell-based, human
Conditions: 4 h, IC50 concentration
Express your answer in %, writing the number without its unit.

## Input Item NC(=O)c1cc[n+](C/C=C/C[n+]2ccc(C=NO)cc2)cc1.[Br-].[Br-] with HepG2 cells - increase in late apoptotic cells vs control?
## Output 4.24

## Input Please give the result for CC(C)(C)OO [TBHP, tert-butyl hydroperoxide, reference compound] too.
## Output 9.79

## Input Please give the result for NC(=O)c1cc[n+](CCCC[n+]2ccc(C=NO)cc2)cc1.[Br-].[Br-] too.
## Output 4.35

## Input Please give the result for O/N=C/c1cc[n+](CCCC[n+]2ccc(/C=N/O)cc2)cc1 too.
## Output 3.47

----------
System: HepG2 cells
Assay: Flow cytometric detection of cell death (Annexin V & Dead Cell Assay)
Format: cell-based, human
Settings: 1 h, IC50 concentration
Kindly supply the reported increase in late apoptotic cells vs control values for the records listed here.
Express your answer in %, writing the number without its unit.

## Input Requested field: increase in late apoptotic cells vs control. Item: NC(=O)c1cc[n+](C/C=C/C[n+]2ccc(C=NO)cc2)cc1.[Br-].[Br-]
## Output 4.13

## Input Please give the result for CC(C)(C)OO [TBHP, tert-butyl hydroperoxide, reference compound] too.
## Output 7.74

## Input Please give the result for O/N=C/c1cc[n+](CCCC[n+]2ccc(/C=N/O)cc2)cc1 too.
## Output 4.71

## Input Please give the result for NC(=O)c1cc[n+](CCCC[n+]2ccc(C=NO)cc2)cc1.[Br-].[Br-] too.
## Output 4.17

----------
System: HepG2 cells
Experiment: Intracellular nonprotein thiols (NP-SH) by HPLC-UV
Assay type: cell-based, human
Details: 24 h, IC50 concentration
TEST_READOUT: decrease in NP-SH levels vs untreated control (%)
Express your answer in %, writing the number without its unit.

## Input Requested field: decrease in NP-SH levels vs untreated control. Item: NC(=O)c1cc[n+](C/C=C/C[n+]2ccc(C=NO)cc2)cc1.[Br-].[Br-] [K203]
## Output 12.1

## Input Please give the result for NC(=O)c1cc[n+](CCCC[n+]2ccc(C=NO)cc2)cc1.[Br-].[Br-] [K048] too.
## Output 11.4

## Input Please give the result for O/N=C/c1cc[n+](CCCC[n+]2ccc(/C=N/O)cc2)cc1 [K074] too.
## Output 11.6

## Input Please give the result for CC(C)(C)OO [TBHP, tert-butyl hydroperoxide, reference compound] too.
## Output 53.1

----------
Test: Colorimetric MTT cell viability assay, 24 h
Details: human, HepG2 cells, IC50 (cytotoxicity, MTT assay), 24 h incubation
Kindly supply the reported IC50 at 24 h values for the records listed here.

## Input Requested field: IC50 at 24 h. Item: NC(=O)c1cc[n+](CCCC[n+]2ccc(C=NO)cc2)cc1.[Br-].[Br-] [K048]
## Output ~30 mM

## Input Please give the result for CC(C)(C)OO [TBHP, tert-butyl hydroperoxide, reference compound] too.
## Output 0.13 mM

## Input Please give the result for O/N=C/c1cc[n+](CCCC[n+]2ccc(/C=N/O)cc2)cc1 [K074] too.
## Output ~27 mM
